Data origin: paper PMC4187893

- system-tested: UniProtKB P62344
- assay-protocol: Radiometric assay, incorporation of 33P into MTIP
- condition-set: read-out: IC50 Radiometric assay; ATP and MTIP at their respective Km values
Please respond with yes when measured IC50 is strictly beneath 20 nM, and with no in all other cases.

API: query returns whether the compound falls strictly under 20 nM in IC50. Query: c1cncc(CCNc2ccc3ncc(-c4ccc5c(c4)OCO5)n3n2)c1 [Compound 50] yes

Same question, CC(=O)Nc1cccc(-c2cnc3ccc(NCCc4cccnc4)nn23)c1 [Compound 11] this time no

Same question, CC(=O)Nc1cccc(-c2cnc3ccc(NCCc4ccccn4)nn23)c1 [Compound 10] this time no

Same question, COc1ccc2ncc(-c3ccc(C(=O)NCc4ccccc4)cc3)n2n1 [Compound 12] this time no

Same question, NC(=O)c1ccc(-c2cnn3ccc(NCCc4cccnc4)nc23)cc1 [Compound 15] this time yes

Same question, O=C(NCc1ccccc1)c1ccc(-c2cnc3ccc(NCCc4cccnc4)nn23)cc1 [Compound 47] this time yes

Same question, CC(=O)Nc1cccc(-c2cnn3ccc(NCCc4cccnc4)nc23)c1 [Compound 14] this time yes

====

- system-tested: PfCDPK1 (Plasmodium falciparum, UniProt P62344)
- Sequence (P62344 whole entry): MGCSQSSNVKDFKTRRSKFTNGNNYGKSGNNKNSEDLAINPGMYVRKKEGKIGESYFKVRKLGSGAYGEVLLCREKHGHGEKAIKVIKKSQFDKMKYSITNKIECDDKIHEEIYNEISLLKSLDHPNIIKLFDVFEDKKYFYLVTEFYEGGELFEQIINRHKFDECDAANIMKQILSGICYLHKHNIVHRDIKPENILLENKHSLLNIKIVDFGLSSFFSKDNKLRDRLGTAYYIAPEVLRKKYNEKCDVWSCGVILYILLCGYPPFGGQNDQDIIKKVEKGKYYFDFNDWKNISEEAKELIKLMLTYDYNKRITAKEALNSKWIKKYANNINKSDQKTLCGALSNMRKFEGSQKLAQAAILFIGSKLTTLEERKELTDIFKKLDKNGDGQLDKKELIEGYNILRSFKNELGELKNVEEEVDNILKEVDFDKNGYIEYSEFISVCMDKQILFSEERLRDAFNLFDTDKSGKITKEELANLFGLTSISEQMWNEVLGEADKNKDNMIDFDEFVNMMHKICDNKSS
- condition-set: Rh-ParM, absence of MTIP
IC50 ratio (IC50 with 1 mM ATP/IC50 with 30 μM ATP) listing for selected compounds.
Form rule: numeric answer, no unit written next to it.

>>> value_measured("COc1ccc2ncc(-c3ccc(C(=O)NCc4ccccc4)cc3)n2n1")
37
>>> value_measured("CC(=O)Nc1cccc(-c2cnc3ccc(NCCc4ccccn4)nn23)c1")
27
>>> value_measured("O=C(NCc1ccc(N2CCCC2)cc1)c1ccc(-n2cnc3cccnc32)cc1")
39

Please provide the recorded IC50 ratio (IC50 with 1 mM ATP/IC50 with 30 μM ATP) for O=C(NCc1cccc(N2CCCC2)c1)c1ccc(-n2cnc3cccnc32)cc1 , tested on PfCDPK1 (Plasmodium falciparum, UniProt P62344). 27

Same question, Cc1c(C(=O)N(C)C2CCCCC2)noc1COc1ccc(-n2cncn2)cc1 this time 41

Same question, CN(C(=O)c1cc(COc2ccc(-n3cncn3)cc2)on1)C1CCCCC1 this time 336

Same question, N#Cc1cccc(-c2cnn3ccc(NCCc4cccnc4)nc23)c1 this time 17

====

- system-tested: PvCDPK1 (Plasmodium vivax)
- Sequence (A5KBU9 entry or part of it): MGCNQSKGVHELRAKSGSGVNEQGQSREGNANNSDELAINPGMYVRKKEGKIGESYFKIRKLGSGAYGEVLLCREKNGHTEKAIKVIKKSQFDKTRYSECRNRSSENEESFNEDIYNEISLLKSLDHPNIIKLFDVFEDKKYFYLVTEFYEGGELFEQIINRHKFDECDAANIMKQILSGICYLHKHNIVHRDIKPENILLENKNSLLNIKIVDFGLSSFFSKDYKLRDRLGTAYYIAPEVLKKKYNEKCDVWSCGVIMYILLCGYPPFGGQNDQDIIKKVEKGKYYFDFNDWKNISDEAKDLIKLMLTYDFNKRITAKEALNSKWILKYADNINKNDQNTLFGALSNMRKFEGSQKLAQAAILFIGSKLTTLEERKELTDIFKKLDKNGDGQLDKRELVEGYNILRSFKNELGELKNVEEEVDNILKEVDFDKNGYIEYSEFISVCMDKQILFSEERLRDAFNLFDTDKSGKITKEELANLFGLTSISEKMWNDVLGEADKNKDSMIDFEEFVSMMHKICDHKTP
- assay-protocol: Rh-ParM ADP sensor IC50 assay, PvCDPK1
Please respond with 1 when measured IC50 ratio PvCDPK1/PfCDPK1 is strictly beneath 0.9, and with 0 in all other cases.

Solved entries (count: 4):
>>> category("CC(C)CCNc1cc(-c2cnc3ccc(NC4CCN(C)CC4)nn23)ccn1 [Compound 27]")
1
>>> category("CN(C)C1CCN(c2ccc3ncc(-c4cnc(Nc5ncccc5F)nc4)n3n2)C1 (stereo not drawn) [Compound 45]")
0
>>> category("CN1CCC(Nc2ccn3ncc(-c4cccc(NC(=O)c5ccccc5)c4)c3n2)CC1 [Compound 28]")
1
>>> category("Fc1cccnc1Nc1ncc(-c2cnc3ccc(NC4CCC(N5CCNCC5)CC4)nn23)cn1 (stereo not drawn) [Compound 46]")
1

API: query returns whether the compound falls strictly under 0.9 in IC50 ratio PvCDPK1/PfCDPK1. Query: c1ccc(-n2cc(-c3cnc4ccc(NC5CCNCC5)nn34)cn2)cc1 [Compound 44] 1

====

- system-tested: PfCDPK1 (Plasmodium falciparum, UniProt P62344)
- condition-set: read-out: IC50 With 30 μM ATP; 30 μM ATP; Rh-ParM ADP detection, absence of MTIP; mean (SD), n = 2
parameter: pIC50
Notebook: values listed as pIC50 are -log10 of the concentration (mol/L).

Some molecules with recorded pIC50:
>>> value_measured("CN(C(=O)c1cc(COc2ccc(-n3cncn3)cc2)on1)C1CCCCC1")
7.14
>>> value_measured("CN(C(=O)c1cc(COc2ccc(-n3ccnc3)cc2)on1)C1CCCCC1")
6.14
>>> value_measured("CC(=O)Nc1cccc(-c2cnc3ccc(NCCc4cccnc4)nn23)c1")
7.31
>>> value_measured("N#Cc1cccc(-c2cnn3ccc(NCCc4cccnc4)nc23)c1")
6.67

Turning now to a further molecule:
For CC(=O)Nc1cccc(-c2cnn3ccc(NCCc4cccnc4)nc23)c1 , what is its reported pIC50? 7.55

====

IC50 ratio (IC50 with 1 mM ATP/IC50 with 30 μM ATP) listing for selected compounds.
- system-tested: PfCDPK1 (Plasmodium falciparum, UniProt P62344)
- condition-set: Rh-ParM, absence of MTIP
Form rule: numeric answer, no unit written next to it.

>>> value_measured("NC(=O)c1ccc(-c2cnn3ccc(NCCc4cccnc4)nc23)cc1")
12
>>> value_measured("CC(=O)Nc1cccc(-c2cnn3ccc(NCCc4cccnc4)nc23)c1")
27
>>> value_measured("CC(C)Oc1ccc(CNC(=O)c2ccc(-n3cnc4cccnc43)cc2)cc1")
53

For CC(=O)Nc1cccc(-c2cnc3ccc(NCCc4cccnc4)nn23)c1 , what is its reported IC50 ratio (IC50 with 1 mM ATP/IC50 with 30 μM ATP)? 28

Same question, CN(C(=O)c1cc(COc2ccc(-n3ccnc3)cc2)on1)C1CCCCC1 this time 44

====

- system-tested: PvCDPK1 (Plasmodium vivax)
- assay-protocol: Rh-ParM ADP sensor IC50 assay, PvCDPK1
- condition-set: read-out: IC50 PvCDPK1; Rh-ParM, absence of MTIP, ATP at Km; mean (SD), n = 2
parameter: pIC50
Notebook: values listed as pIC50 are -log10 of the concentration (mol/L).

Some molecules with recorded pIC50:
>>> value_measured("CC(C)CNc1ncc(-c2cnc3ccc(NC4CCC(N)CC4)nn23)cn1 (stereo not drawn) [Compound 29]")
7.10
>>> value_measured("CC(C)CCNc1ncc(-c2cnn3ccc(NC4CCN(C)C4)nc23)cn1 (stereo not drawn) [Compound 42]")
7.00
>>> value_measured("CN(C)C1CCN(c2ccc3ncc(-c4cnc(Nc5ncccc5F)nc4)n3n2)C1 (stereo not drawn) [Compound 45]")
7.72
>>> value_measured("c1nc(NCC2CC2)ncc1-c1cnc2ccc(NC3CCNCC3)nn12 [Compound 40]")
7.32
>>> value_measured("CC(C)CCNc1cc(-c2cnc3ccc(NC4CCN(C)CC4)nn23)ccn1 [Compound 27]")
7.17
>>> value_measured("Fc1cccnc1Nc1ncc(-c2cnc3ccc(NC4CCC(N5CCNCC5)CC4)nn23)cn1 (stereo not drawn) [Compound 46]")
7.96
>>> value_measured("c1ccc(-n2cc(-c3cnc4ccc(NC5CCNCC5)nn34)cn2)cc1 [Compound 44]")
7.23
>>> value_measured("CC(C)CCNc1ccc(-c2cnn3ccc(NC4CCN(C)C4)nc23)cn1 (stereo not drawn) [Compound 41]")
7.17

Turning now to a further molecule:
For CN1CCC(Nc2ccn3ncc(-c4cccc(NC(=O)c5ccccc5)c4)c3n2)CC1 [Compound 28] , what is its reported pIC50? 7.62

====

- system-tested: PfCDPK1 (Plasmodium falciparum, UniProt P62344)
- condition-set: read-out: IC50 PfCDPK1; Rh-ParM, absence of MTIP, ATP at Km; mean (SD), n = 2
IC50 listing for selected molecules.
Report field: quantity (unit follows the number).

>>> value_measured("CC(C)CCNc1cc(-c2cnc3ccc(NC4CCN(C)CC4)nn23)ccn1")
"0.138 µM"
>>> value_measured("c1nc(NCC2CC2)ncc1-c1cnc2ccc(NC3CCNCC3)nn12")
"0.052 µM"
>>> value_measured("CN1CCC(Nc2ccn3ncc(-c4cccc(NC(=O)c5ccccc5)c4)c3n2)CC1")
"0.04 µM"
>>> value_measured("CC(C)CCNc1ccc(-c2cnn3ccc(NC4CCN(C)C4)nc23)cn1 (stereo not drawn)")
"0.073 µM"
>>> value_measured("c1ccc(-n2cc(-c3cnc4ccc(NC5CCNCC5)nn34)cn2)cc1")
"0.107 µM"

For CC(C)CNc1ncc(-c2cnc3ccc(NC4CCC(N)CC4)nn23)cn1 (stereo not drawn) , what is its reported IC50? 0.086 µM

Same question, CC(C)CCNc1ncc(-c2cnn3ccc(NC4CCN(C)C4)nc23)cn1 (stereo not drawn) this time 0.109 µM

Same question, Fc1cccnc1Nc1ncc(-c2cnc3ccc(NC4CCC(N5CCNCC5)CC4)nn23)cn1 (stereo not drawn) this time 0.013 µM

Same question, CN(C)C1CCN(c2ccc3ncc(-c4cnc(Nc5ncccc5F)nc4)n3n2)C1 (stereo not drawn) this time 0.019 µM

====

- system-tested: PfCDPK1 (Plasmodium falciparum, UniProt P62344)
- condition-set: read-out: IC50 With 30 μM ATP; 30 μM ATP; Rh-ParM ADP detection, absence of MTIP; mean (SD), n = 2
pIC50 listing for selected molecules.
Notebook: values listed as pIC50 are -log10 of the concentration (mol/L).

Some molecules with recorded pIC50:
>>> value_measured("Cc1c(C(=O)N(C)C2CCCCC2)noc1COc1ccc(-n2cncn2)cc1 [Compound 21]")
6.84
>>> value_measured("COc1ccc2ncc(-c3ccc(C(=O)NCc4ccccc4)cc3)n2n1 [Compound 12]")
6.97
>>> value_measured("CC(=O)Nc1cccc(-c2cnc3ccc(NCCc4ccccn4)nn23)c1 [Compound 10]")
7.19
>>> value_measured("NC(=O)c1ccc(-c2cnn3ccc(NCCc4cccnc4)nc23)cc1 [Compound 15]")
7.64
>>> value_measured("CCc1ccccc1NC(=O)CSc1nccn(-c2ccc(OC)cc2)c1=O [Compound 22]")
4.47

For COc1ccc(-n2ccnc(SCC(=O)Nc3ccc(C)cc3C)c2=O)cc1 [Compound 24] , what is its reported pIC50? 4.51

Same question, O=C(NCc1cccc(N2CCCC2)c1)c1ccc(-n2cnc3cccnc32)cc1 [Compound 17] this time 7.29

Same question, CC(C)Oc1ccc(CNC(=O)c2ccc(-n3cnc4cccnc43)cc2)cc1 [Compound 18] this time 7.07

Same question, O=C(NCc1ccc(N2CCCC2)cc1)c1ccc(-n2cnc3cccnc32)cc1 [Compound 16] this time 7.11

Same question, COc1ccc(NC(=O)CSc2nccn(-c3ccc(OC)cc3)c2=O)cc1 [Compound 23] this time 4.40
